Values were extracted from patent US20260285850A1.

Tested on: blackgrass (Alopecurus myosuroides)
Test: Test A postemergence application, visual injury rating 0-100
Assay type: in vivo
Details: Postemergence, 125 g ai/ha, 10 days; 0 is no effect, 100 is complete control
Catalogue of compounds with associated Blackgrass plant response rating (0 to 100 scale)

>  <COMPOUND>
CCCOC(=O)C1C=CC(NC(=O)C2(C)CN(c3cc(F)cc(F)c3)C(=O)O2)C1 (stereo not drawn) [Compound 34]

>  <ENDPOINT RESULT>
90

$$$$

Query :: # Blackgrass plant response rating (0 to 100 scale) lookup, item CC1(C(=O)NC2C=CC(C(=O)OCCS(C)(=O)=O)C2)CN(c2cc(F)cc(F)c2)C(=O)O1 (stereo not drawn) [Compound 49]
Result :: 90

Query :: Same lookup for COC(=O)[C@H]1C[C@@H](NC(=O)C2(C)CN(c3cc(F)cc(F)c3)C(=O)O2)[C@H]2C[C@H]21 (stereo partly drawn) [Compound 176] , please.
Result :: 90

Query :: Please answer likewise for COC(=O)C1C=CC(NC(=O)C2(C)CN(c3cc(F)cc(Cl)c3)C(=O)O2)C1 (stereo not drawn) [Compound 17]
Result :: 90

Query :: Item: CC1(C(=O)NC2C=CC(C(=O)OCC#N)C2)CN(c2cc(F)cc(F)c2)C(=O)O1 (stereo not drawn) [Compound 35]
Result :: 90

Query :: // repeat for CC1(C(=O)NC2C=CC(C(=O)OC3CCCC3)C2)CN(c2cc(Cl)cc(Cl)c2)C(=O)O1 (stereo not drawn) [Compound 59] and report
Result :: 100

Query :: Param item: CC1(C(=O)NC2C=CC(C(=O)ON=Cc3ccccc3)C2)CN(c2cc(F)cc(F)c2)C(=O)O1 (stereo not drawn) [Compound 68]
Result :: 90

Query :: Also need CC(C)OC(=O)C1CCC(NC(=O)C2(C)CN(c3cc(F)cc(F)c3)C(=O)O2)C1 (stereo not drawn) [Compound 12] , thanks.
Result :: 80

Query :: And the next one, COC(=O)C1=CCC(NC(=O)C2(C)CN(c3cc(F)cc(F)c3)C(=O)O2)C1 (single isomer, unassigned) [Compound 20] ?
Result :: 60

Query :: Next compound: CC(C)COC(=O)C1C=CC(NC(=O)C2(C)CN(c3cc(F)cc(F)c3)C(=O)O2)C1 (stereo not drawn) [Compound 56]
Result :: 90

Query :: Queued: CC1(C(=O)NC2C=CC(C(=O)O)C2)CN(c2cc(Cl)cc(Cl)c2)C(=O)O1 (stereo not drawn) [Compound 62]
Result :: 100

Query :: Check CC1(C(=O)NC2CC=C(C(=O)O)C2)CN(c2cc(Cl)cc(Cl)c2)C(=O)O1 (stereo not drawn) [Compound 72] too.
Result :: 90

###

Measured Foxtail, Green plant response rating (0 to 100 scale), listed per entry.
Test system: green foxtail (Setaria viridis)
Test: Test A postemergence application, visual injury rating 0-100
Format: in vivo
Details: Postemergence, 16 g ai/ha, greenhouse 10 days; 0 no effect, 100 complete control

>  <COMPOUND>
COC(=O)C1=CCC(NC(=O)C2(C)CN(c3cc(Cl)cc(Cl)c3)C(=O)O2)C1 (stereo not drawn)

>  <TARGET UNDER TEST>
green foxtail (Setaria viridis)

>  <ENDPOINT RESULT>
90

$$$$
>  <COMPOUND>
C=CC1(C(=O)NC2CC(C(=O)OC)C2)CN(c2cc(F)cc(F)c2)C(=O)O1 (stereo not drawn) [Compound 175]

>  <TARGET UNDER TEST>
green foxtail (Setaria viridis)

>  <ENDPOINT RESULT>
30

$$$$

Please find the next compound below.
Query :: Form field: reported Foxtail, Green plant response rating (0 to 100 scale) of COC(=O)COC(=O)C1=CCC(NC(=O)C2(C)CN(c3cc(Cl)cc(Cl)c3)C(=O)O2)C1 (stereo not drawn)
Result :: 90

###

System: palmer (palmer amaranth, palmer pigweed, Amaranthus palmeri)
Experiment: Test A preemergence soil spray, visual injury rating 0-100
Assay type: in vivo
Details: 31 g ai/ha, 10 days, 0 = no effect, 100 = complete control
OUTCOME MEASURE: Amaranth, Palmer plant response rating (0-100)
// keep it numeric: no unit symbol after the value

Past entries and their recorded results:
>  <MOLECULE>
CCCS(=O)(=O)OC(=O)C1C=CC(NC(=O)C2(C)CN(c3cc(Cl)cc(Cl)c3)C(=O)O2)C1 (mixture of isomers)

>  <ENDPOINT RESULT>
80

$$$$
>  <MOLECULE>
CC1(C(=O)NC2CCC(C(=O)O)C2)CN(c2cc(F)cc(Cl)c2)C(=O)O1 (stereo not drawn)

>  <ENDPOINT RESULT>
0

$$$$
>  <MOLECULE>
CONC(=O)C1CC(NC(=O)C2(C)CN(c3cc(F)cc(F)c3)C(=O)O2)CO1 (stereo not drawn)

>  <ENDPOINT RESULT>
0

$$$$
>  <MOLECULE>
CC(C)OC(=O)C1=CCC(NC(=O)C2(C)CN(c3cc(F)cc(F)c3)C(=O)O2)C1 (stereo not drawn)

>  <ENDPOINT RESULT>
20

$$$$
>  <MOLECULE>
CCOC(=O)C1C=CC(NC(=O)C2(C)CN(c3cc(F)cc(Cl)c3)C(=O)O2)C1 (stereo not drawn)

>  <ENDPOINT RESULT>
80

$$$$
>  <MOLECULE>
CC1(C(=O)NC2CCC(C(=O)NS(C)(=O)=O)C2)CN(c2cc(F)cc(F)c2)C(=O)O1 (stereo not drawn)

>  <ENDPOINT RESULT>
0

$$$$
>  <MOLECULE>
CC(C)OC(=O)C1CCC(NC(=O)C2(C)CN(c3cc(F)cc(Cl)c3)C(=O)O2)C1 (stereo not drawn)

>  <ENDPOINT RESULT>
20

$$$$
>  <MOLECULE>
CC1(C(=O)NC2C=CC(C(=O)NS(=O)(=O)C(C)(C)C)C2)CN(c2cc(F)cc(F)c2)C(=O)O1 (stereo not drawn)

>  <ENDPOINT RESULT>
0

$$$$
>  <MOLECULE>
CC(C)OC(=O)C1=CCC(NC(=O)C2(C)CN(c3cc(Cl)cc(Cl)c3)C(=O)O2)C1 (stereo not drawn)

>  <ENDPOINT RESULT>
30

$$$$
>  <MOLECULE>
CC1(C(=O)NC2C=CC(C(=O)OC3CCCC3)C2)CN(c2cc(F)cc(F)c2)C(=O)O1 (stereo not drawn)

>  <ENDPOINT RESULT>
10

$$$$

Query :: I'd like to know its Amaranth, Palmer plant response rating (0-100). The molecule in question is CCOC(=O)C1CCC(NC(=O)C2(C)CN(c3cc(F)cc(F)c3)C(=O)O2)C1 (stereo not drawn)
Result :: 0

Query :: Would you mind doing CC1(C(=O)NC2C=CC(C(=O)O)C2)CN(c2cc(Cl)cc(Cl)c2)C(=O)O1 (stereo not drawn) as well?
Result :: 90

###

Test system: barnyardgrass (Echinochloa crus-galli)
Assay: Test A preemergence soil spray, visual injury rating 0-100
Format: in vivo
Settings: 62 g ai/ha, 10 days, 0 = no effect, 100 = complete control
OUTCOME MEASURE: Barnyardgrass plant response rating (0-100)
# answer = number (no unit)

Solved cases (5 shown):
>  <COMPOUND>
COC(=O)C1C=CC(NC(=O)C2(C)CN(c3cc(F)cc(F)c3)C(=O)O2)C1 (stereo not drawn) [Compound 92]

>  <TARGET UNDER TEST>
barnyardgrass (Echinochloa crus-galli)

>  <ENDPOINT RESULT>
0

$$$$
>  <COMPOUND>
COC(=O)C1C=CC(NC(=O)C2(C)CN(c3cc(F)cc(F)c3)C(=O)O2)C1 (stereo not drawn) [Compound 89]

>  <TARGET UNDER TEST>
barnyardgrass (Echinochloa crus-galli)

>  <ENDPOINT RESULT>
100

$$$$
>  <COMPOUND>
CC(C)OC(=O)C1=CCC(NC(=O)C2(C)CN(c3cc(Cl)cc(Cl)c3)C(=O)O2)C1 (stereo not drawn) [Compound 106]

>  <TARGET UNDER TEST>
barnyardgrass (Echinochloa crus-galli)

>  <ENDPOINT RESULT>
0

$$$$
>  <COMPOUND>
C=CC1(C(=O)NC2CC(C(=O)OC)C2)CN(c2cc(F)cc(F)c2)C(=O)O1 (stereo not drawn)

>  <TARGET UNDER TEST>
barnyardgrass (Echinochloa crus-galli)

>  <ENDPOINT RESULT>
0

$$$$
>  <COMPOUND>
CC1(C(=O)NC2CC=C(C(=O)NS(=O)(=O)C(C)(C)C)C2)CN(c2cc(F)cc(F)c2)C(=O)O1 (racemic)

>  <TARGET UNDER TEST>
barnyardgrass (Echinochloa crus-galli)

>  <ENDPOINT RESULT>
10

$$$$

Query :: Which Barnyardgrass plant response rating (0-100) is reported for this compound? CCOC(=O)C1C=CC(NC(=O)C2(C)CN(c3cccc(OC(F)(F)F)c3)C(=O)O2)C1 (stereo not drawn)
Result :: 0

Query :: Another compound to look at: C=CC1(C(=O)NC2COC(C(=O)OC)C2)CN(c2cc(F)cc(F)c2)C(=O)O1 (stereo not drawn) [Compound 170]
Result :: 0
